- ASSAY_TARGET: T1, mouse serum albumin (mouse, UniProt P07724 25-608)
- T1 construct: also called MSA
- EXPERIMENT_SUMMARY: SPR, MSA immobilised
pKd: −log10 of the molar value. Where no end group is shown, it is not given here.
For each of the binders below, state its pKd.

LAEAKVLALKELDKYGISNYYKNLINNAKTIEGVKALKAQILAA (designed binder, not shown: small tags and cut ends, also: part of fusion protein, targeting moiety, linker, tag and order not given here) [Fusion proteins with albumin binding domain of SEQ ID NO: 22]
> 7.80
LAEAKVLALKELDKYGISNYYKNLINNAKTIEGVKALKAAIVAA (designed binder, not shown: small tags and cut ends, also: part of fusion protein, targeting moiety, linker, tag and order not given here) [Fusion proteins with albumin binding domain of SEQ ID NO: 21]
> 7.80
LAEAKVLALKELDKYGISNYYKNLINNAKTIEGVEALKDAIVAA (designed binder, not shown: small tags and cut ends, also: part of fusion protein, targeting moiety, linker, tag and order not given here) [Fusion proteins with albumin binding domain of SEQ ID NO: 24]
> 7.80

(Q) Fill in: pKd of LAEAKVLALKELDKYGISNYYKNLINNAKTIEGVKALKEAIVAA (designed binder, not shown: small tags and cut ends, also: part of fusion protein, targeting moiety, linker, tag and order not given here, also called c19) [Fusion proteins with albumin binding domain of SEQ ID NO: 23] is ___
(A) > 8.00
